Exercise: for every item that follows, state its recorded log10(IC50).
target: Recombinant human DPP1 enzyme (Homo sapiens (Human), UniProt P53634); test: Human DPP1 Enzyme IC50 Assay; format: biochemical; conditions: human DPP1 enzyme; Table 16; read-out: IC50, nM; Human
Sequence (P53634 25-134): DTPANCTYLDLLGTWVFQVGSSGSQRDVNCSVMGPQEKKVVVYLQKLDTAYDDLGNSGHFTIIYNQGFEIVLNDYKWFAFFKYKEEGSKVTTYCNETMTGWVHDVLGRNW
Sequence (P53634 231-394): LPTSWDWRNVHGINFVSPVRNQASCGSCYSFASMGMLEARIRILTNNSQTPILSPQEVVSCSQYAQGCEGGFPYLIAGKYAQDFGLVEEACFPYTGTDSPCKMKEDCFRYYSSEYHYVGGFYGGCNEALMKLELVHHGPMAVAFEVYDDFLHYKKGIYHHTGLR
Sequence (P53634 395-463): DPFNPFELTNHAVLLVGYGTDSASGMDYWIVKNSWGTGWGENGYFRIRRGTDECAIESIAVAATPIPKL
Would you kindly interpret these values as log10 of IC50 expressed in nM?

{"compound": "Cn1c(=O)oc2ccc(-c3ccc(C[C@@H](C#N)NC(=O)[C@@H]4C[C@@H]5COC[C@@H]5N4)cc3)cc21 [drawing 1208]", "log10(IC50)": 2.49}
{"compound": "C[C@@H]1NCCC[C@@H]1C(=O)N[C@H](C#N)Cc1ccc(-c2ccc3oc(=O)n(C)c3c2)cc1", "log10(IC50)": 3.12}
{"compound": "[2H]C([2H])([2H])n1c(=O)oc2ccc(-c3ccc(C[C@@H](C#N)NC(=O)[C@@H]4C[C@@H]5COC[C@@H]5N4)cc3)cc21", "log10(IC50)": 2.63}
{"compound": "N#Cc1ccc(-c2ccc(C[C@@H](C#N)NC(=O)[C@@H]3C[C@@H]4COC[C@@H]4N3)s2)cc1", "log10(IC50)": 3.36}
{"compound": "Cn1c(=O)oc2ccc(-c3ccc(C[C@@H](C#N)NC(=O)[C@@H]4C[C@H]5C[C@H]5N4)cc3)cc21 [drawing 1151]", "log10(IC50)": 1.61}
{"compound": "N#Cc1ccc(-c2ccc(C[C@@H](C#N)NC(=O)[C@@H]3C[C@@H]4COC[C@@H]4N3)cc2)cc1", "log10(IC50)": 2.68}
{"compound": "Cn1c(=O)oc2ccc(-c3ccc(CC(C#N)NC(=O)C4CNC4)c(F)c3)cc21 (centres unmarked)", "log10(IC50)": 2.64}
{"compound": "Cn1c(=O)oc2ccc(-c3ccc(C[C@@H](C#N)NC(=O)[C@@H]4COCCN4)cc3)cc21", "log10(IC50)": 2.73}

Quick one: give me log10(IC50) for each item below, same order please.
1. N#Cc1ccc(-c2ccc(C[C@@H](C#N)NC(=O)[C@@H]3CNCCCO3)c(F)c2)cc1 [drawing 1197]
2. Cn1c(=O)oc2ccc(-c3ccc(C[C@@H](C#N)NC(=O)C4CC5OCCC5N4)cc3)cc21 (some centres unmarked)
3. Cn1c(=O)oc2ccc(-c3ccc(C[C@@H](C#N)NC(=O)[C@@H]4C[C@H]5C[C@H]5N4)cc3)cc21 [drawing 1152]
4. Cn1c(=O)oc2ccc(-c3ccc(C[C@@H](C#N)NC(=O)C4CNC4)cc3)cc21
5. Cn1c(=O)oc2ccc(-c3ccc(C[C@@H](C#N)NC(=O)[C@@H]4C[C@@H]5CCC[C@@H]5N4)c(F)c3)cc21 [drawing 1227]

1: 1.69; 2: 2.89; 3: 1.48; 4: 3.10; 5: 0.88

Quick one: give me log10(IC50) for each item below, same order please.
1. Cn1c(=O)oc2ccc(-c3ccc(C[C@@H](C#N)NC(=O)C4CC=CCNC4)cc3)cc21 (some centres unmarked)
2. Cn1c(=O)oc2ccc(-c3cc(F)c(C[C@@H](C#N)NC(=O)[C@@H]4CNCCCO4)cc3F)cc21
3. Cn1c(=O)oc2ccc(-c3ccc(C[C@@H](C#N)NC(=O)CC4(N)CCCCC4)cc3)cc21
4. Cn1c(=O)oc2ccc(-c3ccc(C[C@@H](C#N)NC(=O)[C@@H]4C[C@@H]5CCC[C@@H]5N4)cc3)cc21
5. Cn1c(=O)oc2ccc(-c3ccc(C[C@@H](C#N)NC(=O)[C@@H]4C[C@H]5COC[C@H]5N4)cc3)cc21 [drawing 1154]
6. N#Cc1ccc(-c2ccc(C[C@@H](C#N)NC(=O)[C@@H]3C[C@@H]4COC[C@@H]4N3)c(F)c2)cc1
7. N#Cc1ccc(-c2ccc(C[C@@H](C#N)NC(=O)C3C[C@@H]4COC[C@@H]4N3)cc2)cc1 (some centres unmarked)

[3.25, 1.47, 3.04, 1.24, 1.84, 2.72, 3.42]

Suppose we examine the compound "Cn1c(=O)oc2ccc(-c3ccc(C[C@@H](C#N)NC(=O)[C@@H]4C[C@@H]5COC[C@@H]5N4)s3)cc21" ; what log10(IC50) value has been reported?
2.77
